// provenance: PubChem BioAssay (NCI)

tested on: SNB-75 CNS; assay: NCI tumour cell line growth inhibition, 48 h
Where a SMILES comes first, the peptide text is derived from it. The star is where a group is joined. Boc = CC(C)(C)OC(=O)*
recorded.endpoint: TGI

Report TGI for O=C1CS/C(=N/S(=O)(=O)c2ccc(N3N=C4c5ccccc5CC4C3c3cccs3)cc2)N1C(=O)c1ccccc1 (stereo unspecified)
> 100 µM

Report TGI for COc1ccc(/C=C2\CCCc3ccccc3C2=O)cc1
> 82.3 µM

Report TGI for COC(=O)C(Cc1c[nH]c2ccccc12)NC(=O)C(Cc1c[nH]c2ccccc12)NC(=O)C(Cc1c[nH]c2ccccc12)NC(=O)C(Cc1c[nH]c2ccccc12)NC(=O)C(Cc1c[nH]c2ccccc12)NC(=O)C(Cc1c[nH]c2ccccc12)NC(=O)C(Cc1c[nH]c2ccccc12)NC(=O)OC(C)(C)C (stereo unspecified) (Boc-WWWWWWW-OMe; configuration not given here)
> 100 µM

Report TGI for Cc1nc2ccc(Br)cc2c(=O)n1-c1ccc(N)cc1
> 100 µM

Report TGI for C/C(=N\Nc1nc2ccccc2[nH]1)c1ncccn1
> 90.3 µM

Report TGI for O=C1C=CC(=O)c2c1ccc1c3ccccc3n(Cc3ccccc3)c21
> 100 µM
